# System: glutathione reductase (GR) and glutathione peroxidase (GPx)
# experiment: Glutathione reductase and glutathione peroxidase coupled assay (NADPH, 340 nm)
# Format: biochemical, yeast (GR), bovine (GPx)
# conditions: yes/no; more than 50% considered retaining GR and GPx activity
measuredParameter: GT/GPx Activity > 50%

compound=N[C@H](CCC(=O)N[C@H](CS)C(=O)NCC(=O)O)C(=O)O recordedmeasurement="X (X: no)"
compound=CN(CC(=O)O)C(=O)[C@H](CS)NC(=O)CC[C@H](N)C(=O)O recordedmeasurement="✔ (✔: yes)"
compound=N[C@@H](CCC(=O)N[C@H](CS)C(=O)NCC(=O)O)C(=O)O recordedmeasurement="X (X: no)"
compound=CN(C(=O)CC[C@H](N)C(=O)O)[C@@H](CS)C(=O)NCC(=O)O recordedmeasurement="✔ (✔: yes)"
compound=N[C@H](CCC(=O)N[C@@H](CS)C(=O)NCC(=O)O)C(=O)O recordedmeasurement="✔ (✔: yes)"

Query: Name the recorded GT/GPx Activity > 50% of the compound listed here: N[C@@H](CCC(=O)N[C@@H](CS)C(=O)NCC(=O)O)C(=O)O [GSH, Glutathione]
Reply: ✔ (✔: yes)

Query: Return the recorded GT/GPx Activity > 50% value; entry: N[C@@H](CCC(=O)N[C@@H](CS)C(=O)NCC(=O)O)C(=O)O [Compound 1.61]
Reply: ✔ (✔: yes)

Query: Tell me its GT/GPx Activity > 50% given "CN[C@@H](CCC(=O)N[C@@H](CS)C(=O)NCC(=O)O)C(=O)O" as the entry.
Reply: ✔ (✔: yes)

---

# experiment: physchem
# conditions: aqueous NaOH solution, pH 12
# Procedure: To investigate the potential peptide degradation during storage and when in a cell culture medium, the stability of GSH in NaOH (0.1 molL^−1, pH 13.0), HBSS (pH 7.4), and HCl (0.1 molL^−1, pH 1.0) were investigated. GSH (100 μgmL^−1) was incubated at 37 °C with the above conditions for 24 h or until at least 20% of peptide was degraded. […]
measuredParameter: half-life at 100 μgmL^−1 (h)
Answer format: numeric, h implied, no suffix.

Query: Tell me measured half-life at 100 μgmL^−1 for N[C@@H](CCC(=O)N[C@@H](CS)C(=O)NCC(=O)O)C(=O)O [GSH, Glutathione] please.
Reply: 2.5

---

# Tested on: glutathione S-transferase (GST)
# experiment: Glutathione S-transferase assay (CDNB conjugation, absorbance 340 nm)
# Type: biochemical, equine
# conditions: qualitative analysis
measuredParameter: activity/efficacy with GST enzyme (in words)

inputsmiles=CN[C@@H](CCC(=O)N[C@@H](CS)C(=O)NCC(=O)O)C(=O)O recordedmeasurement="loss of activity"
inputsmiles=CN(CC(=O)O)C(=O)[C@H](CS)NC(=O)CC[C@H](N)C(=O)O recordedmeasurement="loss of activity"

---

# experiment: Pharmacokinetic study after IV injection or oral gavage
# Assay type: in vivo, male Sprague Dawley rat
# conditions: male, Sprague-Dawley, plasma; IV, 75 mg per rat, AUC0-48, mean ± SD, n = 4
measuredParameter: AUC (ng·h/mL)
State the answer as a number, implicitly in ng·h/mL.

compound="N[C@@H](CCC(=O)N[C@@H](CS)C(=O)NCC(=O)O)C(=O)O [GSH, Glutathione]" measuredparameter=AUC recordedmeasurement=5350

As a next step, examine the compound that follows.
Query: Consider the compound CN(C(=O)CC[C@H](N)C(=O)O)[C@@H](CS)C(=O)NCC(=O)O [Compound 1.70] and give its recorded AUC.
Reply: 727
